assay-details: log P by reversed-phase HPLC, acidic range
Assay type: physicochemical
protocol-conditions: reversed-phase C18 HPLC column, formic acid in water/acetonitrile
Give chromatographic logP for every item shown.
Numbers only.

Worked examples, 4 molecules total:
INSERT INTO results (molecule, observed_measurement) VALUES
  ('Cn1c(-c2nn3cc(C4(C#N)CC4)ccc3c2Br)nc2cc(OC(F)(F)F)cnc21', 3.9),
  ('CCS(=O)(=O)c1c(-c2nc3cc(OC(F)(F)C(F)(F)F)cnc3n2C)nn2cc(C3(C#N)CC3)ccc12 [Example I-5]', 3.76),
  ('CCS(=O)(=O)c1c(-c2nc3cc(OC(F)(F)F)ccc3n2C)nn2cc(C3(C#N)CC3)ccc12 [Example I-2]', 3.29),
  ('CCS(=O)(=O)c1c(-c2nc3cc(OC(F)(F)F)cnc3n2C)nn2cc(C3(C#N)CC3)ccc12 [Example I-1]', 3.18);

For each of the items listed, what is its chromatographic logP?
1. CCS(=O)(=O)c1c(-c2nc3cc4c(nc3n2C)OC(F)(F)O4)nn2cc(C3(C#N)CC3)ccc12 [Example I-4]
2. CCS(=O)(=O)c1c(-c2nc3cc4c(cc3n2C)OC(F)(F)O4)nn2cc(C3(C#N)CC3)ccc12 [Example I-3]

Reply text:
[3.22, 3.18]

Origin of measurements: patent US20220033418A1
